biological target: Coagulation factor XI (Homo sapiens, UniProt P03951); experiment: Inhibition of factor 11a (unknown origin) using S-2366 as substrate incubated for 30 mins followed by substrate addition
Sequence (P03951 19-387 limits assumed): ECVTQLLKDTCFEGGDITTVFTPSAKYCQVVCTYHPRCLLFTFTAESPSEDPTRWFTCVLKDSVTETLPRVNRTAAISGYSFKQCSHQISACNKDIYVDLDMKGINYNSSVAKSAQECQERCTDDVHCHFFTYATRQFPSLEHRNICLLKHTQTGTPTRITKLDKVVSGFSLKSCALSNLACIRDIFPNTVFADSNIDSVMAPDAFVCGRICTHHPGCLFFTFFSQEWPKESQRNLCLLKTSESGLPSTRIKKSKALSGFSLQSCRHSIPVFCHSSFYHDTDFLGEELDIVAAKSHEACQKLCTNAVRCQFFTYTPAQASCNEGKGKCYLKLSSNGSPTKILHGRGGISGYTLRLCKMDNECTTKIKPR
Sequence (P03951 388-625 limits assumed): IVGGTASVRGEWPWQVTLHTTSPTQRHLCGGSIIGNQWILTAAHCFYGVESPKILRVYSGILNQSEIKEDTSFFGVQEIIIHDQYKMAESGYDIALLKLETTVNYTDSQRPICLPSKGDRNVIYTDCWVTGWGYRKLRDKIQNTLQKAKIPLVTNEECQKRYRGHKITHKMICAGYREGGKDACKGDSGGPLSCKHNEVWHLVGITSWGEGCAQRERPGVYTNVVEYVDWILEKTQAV
Each entry below lists one item and its recorded pIC50 value.
When answering, recall that pIC50 equals minus log10 of the concentration in mol/L, and write that number alone.

The examples below pair each entry with its known result.
> print(dat)
                                   compound  value.measured
1  Cc1nc(N)cc2c1CNC(=O)c1cnn(c1)Cc1ccc(Cn3cccn3)cc1OCCC/C=C\CCO2            4.39
2  Cc1nc(N)cc2c1CNC(=O)c1cnn(c1)Cc1ccc(Cn3cccn3)cc1OCCCC=CCCO2 (mixture of isomers)            4.93
3  Cc1nc(N)ccc1CNC(=O)c1cnn(Cc2ccc(Cn3cccn3)cc2)c1            3.97

Continue with the compound presented below.
So for Cc1nc(N)cc2c1CNC(=O)c1cnn(c1)Cc1ccc(Cn3cccn3)cc1OCCC/C=C/CCO2 , the logged pIC50 turned out to be 5.44

---

biological target: UniProt:P00734
ENDPOINT_LABEL: IC50

> print(dat)
                                   compound  value.measured
1  Cc1nc(N)cc2c1CNC(=O)c1cnn(c1)Cc1ccc(Cn3cccn3)cc1OCCCC=CCCO2 (mixture of isomers)        > 200 µM
2  Cc1nc(N)cc2c1CNC(=O)c1cnn(c1)Cc1ccc(Cn3cccn3)cc1OCCC/C=C\CCO2        > 200 µM
3  Cc1nc(N)cc2c1CNC(=O)c1cnn(c1)Cc1ccc(Cn3cccn3)cc1OCC/C=C/CCCO2        > 200 µM

Kindly consider the entry below.
Simply: Cc1nc(N)ccc1CNC(=O)c1cnn(Cc2ccc(Cn3cccn3)cc2)c1 , UniProt:P00734, IC50 = > 1000 µM

---

# IC50 listing for each entry below
target: Plasma kallikrein (Homo sapiens, UniProt P03952); assay: Inhibition of human plasma kallikrein using D-Pro-Phe-Arg-pNA as substrate preincubated for 30 mins followed by substrate addition
Sequence (P03952 20-390 limits assumed): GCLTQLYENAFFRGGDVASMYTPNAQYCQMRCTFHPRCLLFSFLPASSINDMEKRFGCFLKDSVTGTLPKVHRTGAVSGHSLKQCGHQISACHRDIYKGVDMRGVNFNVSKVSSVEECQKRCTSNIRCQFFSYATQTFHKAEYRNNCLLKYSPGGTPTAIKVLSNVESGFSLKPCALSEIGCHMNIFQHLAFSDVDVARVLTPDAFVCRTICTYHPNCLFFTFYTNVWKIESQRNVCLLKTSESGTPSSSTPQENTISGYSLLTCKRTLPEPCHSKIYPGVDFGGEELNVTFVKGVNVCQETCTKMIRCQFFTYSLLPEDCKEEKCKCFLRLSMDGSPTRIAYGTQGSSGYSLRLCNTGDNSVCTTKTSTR
Sequence (P03952 391-638 limits assumed): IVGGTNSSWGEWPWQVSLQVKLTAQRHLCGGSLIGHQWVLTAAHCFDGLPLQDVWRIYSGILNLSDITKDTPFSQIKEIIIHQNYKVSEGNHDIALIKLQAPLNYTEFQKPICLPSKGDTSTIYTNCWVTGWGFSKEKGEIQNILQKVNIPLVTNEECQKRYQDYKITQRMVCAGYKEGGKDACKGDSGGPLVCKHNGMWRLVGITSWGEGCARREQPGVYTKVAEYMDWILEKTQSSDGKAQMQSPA
Give a bare numeral; the unit µM is implied.

Below: 3 molecules and their reported IC50.
> print(dat)
                                   molecule  value.measured
1  Cc1nc(N)cc2c1CNC(=O)c1cnn(c1)Cc1ccc(Cn3cccn3)cc1OCC/C=C/CCO2            1.21
2  Cc1cc(N)nc2c1CNC(=O)c1cnn(c1)Cc1ccc(Cn3cccn3)cc1OCC/C=C/CCO2            53.2
3  Cc1nc(N)cc2c1CNC(=O)c1cnn(c1)Cc1ccc(Cn3cccn3)cc1OCCCCCCO2            8.31

Entry Cc1nc(N)cc2c1CNC(=O)c1cnn(c1)Cc1ccc(Cn3cccn3)cc1OCCC/C=C/CCO2 , IC50 reported as 0.002

Per the records, this molecule ( Cc1nc(N)ccc1CNC(=O)c1cnn(Cc2ccc(Cn3cccn3)cc2)c1 ) has IC50 equal to 0.0024

The value of IC50 measured for the molecule Cc1nc(N)cc2c1CNC(=O)c1cnn(c1)Cc1ccc(Cn3cccn3)cc1OCCCC=CCCO2 (mixture of isomers) turned out to be 0.0048

Item: Cc1nc(N)cc2c1CNC(=O)c1cnn(c1)Cc1ccc(Cn3cccn3)cc1OCCC/C=C\CCO2 | IC50: 0.0423

Summary for this molecule, Cc1nc(N)cc2c1CNC(=O)c1cnn(c1)Cc1ccc(Cn3cccn3)cc1OCC/C=C\CCO2 : IC50 is 1.57

Query Cc1nc(N)cc2c1CNC(=O)c1cnn(c1)Cc1ccc(Cn3cccn3)cc1OCC/C=C/CCCO2 yields IC50 of 0.153
